# testedTarget: T1, BMPRII-Fc homodimeric complex (UniProt Q13873 27-150)
# T1 construct: also called homodimeric BMPRII-Fc; not shown: linker and Fc portion of the homodimer
# T1 sequence (looked up): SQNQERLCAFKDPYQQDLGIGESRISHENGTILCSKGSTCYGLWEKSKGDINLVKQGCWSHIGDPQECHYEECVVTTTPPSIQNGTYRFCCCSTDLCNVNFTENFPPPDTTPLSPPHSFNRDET
# testMethodNotes: SPR (Biacore), receptor-Fc captured by anti-Fc antibody, ligand injected
observable: pKd
Just the number, please; pKd means minus log10 of the concentration in mol/L.

Query: So what's the measured pKd for this one? BMP10 (ligand, UniProt O95393 317-424, looked up) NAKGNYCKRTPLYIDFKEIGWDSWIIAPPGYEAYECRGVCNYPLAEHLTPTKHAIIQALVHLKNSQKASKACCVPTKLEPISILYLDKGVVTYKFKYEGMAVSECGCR
Result: 10.01

Query: So what's the measured pKd for this one? activin B (ligand, UniProt P09529 293-407, looked up) GLECDGRTNLCCRQQFFIDFRLIGWNDWIIAPTGYYGNYCEGSCPAYLAGVPGSASSFHTAVVNQYRMRGLNPGTVNSCCIPTKLSTMSMLYFDDEYNIVKRDVPNMIVEECGCA
Result: 8.42

Query: So what's the measured pKd for this one? BMP9 (ligand, UniProt Q9UK05 320-429, looked up, also called GDF2) SAGAGSHCQKTSLRVNFEDIGWDSWIIAPKEYEAYECKGGCFFPLADDVTPTKHAIVQTLVHLKFPTKVGKACCVPTKLSPISVLYKDDMGVPTLKYHYEGMSVAECGCR
Result: 8.68
